test system: MALME-3M melanoma; test: NCI tumour cell line growth inhibition, 48 h
Reported values of TGI for individual entries

> print(dat)
                                   compound  value.reported
1  CC1=C(/C=C/C(C)=C/C=C/C(C)=C/C(=O)OC2CC(n3cc(F)c(=O)[nH]c3=O)OC2CO)C(C)(C)CCC1 (stereo not drawn)         31.9 µM
2  CN(C)CCC(=O)C(=Cc1ccc(O)cc1)C(=O)CCN(C)C        > 100 µM

[Q] Query TGI on MALME-3M melanoma for COCOC1C=CCCCC2=CC(C)=C(CC1)O2 (stereo not drawn)
[A] > 100 µM

* * *

system: SW-620 colon; test: NCI tumour cell line growth inhibition, 48 h; in the data active = GI50 below about 0.43 µM; inactive = the rest
# valid calls are T for active, F for inactive; nothing else

These recorded examples may help you get a feel for the data.
> print(dat)
                                   compound  label
1  CC(C(=O)O)c1cccc(Oc2ccccc2)c1 (configuration not stated)      F
2            CSc1ccccc1C#C/C=C\C#Cc1ccccc1N      F
3         CCN(Cc1ccc(F)cc1)c1ccc(CO)c(Br)c1      F
4  COc1ccc(-c2nsc3c2NC(=O)CC3c2cccc(OC)c2)cc1 (configuration not stated)      T
5       C=CCc1ccc(O)c(-c2ccc(O)c(CC=C)c2)c1      F

[Q] Can you look up the reported call for CC(C)=CCc1cc(O)cc2c1OC(C=C(C)C)C1=C2C(=O)C2=C(C1=O)S(=O)(=O)CCN2 (configuration not stated) for me?
[A] F

[Q] Could you please tell me the result logged for CCCCCCCN=C(N)c1ccc(N2CCN(c3ccc(C(N)=NCCCCCCC)cc3)CC2)cc1 in this assay?
[A] T

[Q] Which outcome was entered for the compound Cc1cc(N(CCCNc2ccnc3cc(Cl)ccc23)Cc2ccc3c(c2)OCO3)nc(N2CCOCC2)n1 in this test?
[A] T

[Q] Assay result, entry CC(C)OC(=O)[C@H](C)NP(=O)(OC[C@H]1O[C@@H](n2ccc(=O)[nH]c2=O)[C@](C)(F)[C@@H]1O)Oc1ccccc1 (some centres not stated) — outcome?
[A] F

* * *

system: SNB-75 CNS; assay: NCI tumour cell line growth inhibition, 48 h
Below: a set of entries, each annotated with reported GI50.

Some molecules with recorded GI50:
> print(dat)
                        structure.as.smiles  endpoint.label  value.reported
1  BrCc1cccc(C[P+](c2ccccc2)(c2ccccc2)c2ccccc2)c1            GI50         6.78 µM
2  COc1ccc(-c2cc(/C=C/C(=O)c3ccc(OC)c(OC)c3)[nH]n2)cc1            GI50         1.55 µM

[Q] Item under review: CN1CC[C@@H](c2c(O)cc(O)c3c(=O)cc(-c4ccc(C(F)(F)F)cc4Cl)oc23)[C@@H]1CO . Reported GI50?
[A] 6.89 µM

* * *

tested on: SF-539 CNS; test: NCI tumour cell line growth inhibition, 48 h
Note to self: values exactly at 30 µM are criterion met. So TGI at or above 30 µM is criterion met, below is criterion not met.

[Q] Confirm if TGI reported for the molecule O=C(Nc1cc(C(F)(F)F)ccc1Cl)c1cccc(NC2=C(Cl)C(=O)N(Cc3ccccc3)C2=O)c1 is 30 µM or above.
[A] criterion met

[Q] Test whether the molecule Cc1cc(/N=C/c2ccc(F)cc2)n(-c2ccccc2)n1 records TGI of 30 µM or higher.
[A] criterion met

[Q] Test whether the molecule CC(=O)NNc1nc(-c2ccc([N+](=O)[O-])cc2)c(C#N)c(=O)n1C records TGI of 30 µM or higher.
[A] criterion met

[Q] Could you tell me if the measured TGI of CCc1ccc(/C=C/c2ccc(O)c3ncccc23)[n+](C)c1 reaches 30 µM or more?
[A] criterion met

[Q] Determine whether this molecule has TGI no lower than 30 µM: CC(C)(C)OC/C=C(/CO)[C@@H]1C=C[C@H](O)C1
[A] criterion met

* * *

tested on: DU-145 prostate; assay: NCI tumour cell line growth inhibition, 48 h; in the data active means GI50 below about 0.43 µM; inactive means the rest
The categories you may choose from are TRUE (active), FALSE (inactive)

Worked set:
COMPOUND	LABEL
C[C@@]12CCC[C@@](C)(C(=O)O)C1CC[C@]13CC(=O)[C@](CO)(C1)[C@@H](O)CC32 (stereo partly drawn)	FALSE
C#Cc1nc(Nc2cc(C)[nH]n2)c2ccccc2n1	TRUE
O=C(Nc1cc(C(F)(F)F)ccc1Cl)c1cccc(NC2=C(Cl)C(=O)N(Cc3ccccc3)C2=O)c1	FALSE
O=C1CCC/C=C\C[C@H]2C=CC(=O)/C2=C/C[C@H](C/C=C\CC(F)(F)F)O1	FALSE
Nc1c(C(=O)c2ccccc2)cnn1-c1ccc(F)cc1	FALSE

[Q] State the result this test recorded for Cn1c(=O)c(Oc2ccc(F)cc2)cc2cnc(NC3CCOCC3)nc21 .
[A] FALSE

[Q] # lookup: test call for CC(C(=O)O)c1cccc(Oc2ccccc2)c1 (stereo not drawn)
[A] FALSE

[Q] Which result was noted for this compound in the test: COc1cc(C2CC(c3cccc(Nc4ccncc4)c3)=NN2c2ccc(Cl)cc2)cc(OC)c1OC (stereo not drawn)
[A] FALSE

[Q] So what was the verdict on CCOC(=O)c1c(-c2ccc(OC)cc2)c(C#N)c2c(C#N)c(N)nn2c1N in this test?
[A] FALSE

[Q] Hi, do you know how O=[N+]([O-])c1ccc(CI)cc1 came out in this test?
[A] FALSE

[Q] I would be grateful if you could indicate the recorded call for COc1ccc(C2=C(c3ccc(OC)cc3)C(=O)N3CCCC3C2)cc1 (stereo not drawn) .
[A] FALSE

[Q] Hi, do you know how COC(=O)c1ccc2c(c1)/C(=C\c1cc(Br)c(O)c(Br)c1)C(=O)N2 came out in this test?
[A] FALSE

[Q] Assay outcome for COc1cccc2c1C(=O)c1c(O)c3c(c(O)c1C2=O)C[C@@](O)(/C(C)=N/NC(=O)c1ccc(Cl)cc1)C[C@@H]3OC1CC(N)C(O)C(C)O1 (stereo partly drawn) : what was it?
[A] TRUE

* * *

Let's look at some compounds and their measured TGI.
system: SN12C renal; test: NCI tumour cell line growth inhibition, 48 h

Known TGI results, listed for orientation:
> print(dat)
                                   compound  measured.on  value.reported
1    COc1ccc(/C(Cl)=C(\C=O)c2ccc(OC)cc2)cc1  SN12C renal        > 100 µM
2  COc1ccc(N=NC(=O)NC(CC(C)C)C(=O)NC(C)C(=O)O)cc1 (stereo unspecified)  SN12C renal        > 100 µM
3  COc1ccc(/C=C2\c3cc(OC)c(OC)cc3CCN2C(=O)c2ccccc2)cc1OC  SN12C renal        > 100 µM
4  COc1cc2c(cc1OC)C1C[C@]3(CCN1CC2)C(=O)N(c1ccccc1)C(=O)N3C(C)=O (stereo partly specified)  SN12C renal        > 200 µM
5   COc1ccc(-c2nc3ncccn3c2-c2ccc(SC)cc2)cc1  SN12C renal        > 100 µM

Pending compound:
[Q] Bench note: what TGI did COc1cccc(C2CC23C(=O)NC(=O)NC3=O)c1 (stereo unspecified) show?
[A] > 100 µM

* * *

tested on: HOP-62 NSCLC; experiment: NCI tumour cell line growth inhibition, 48 h
ENDPOINT_LABEL: TGI (µM)
Enter your answer as a number in µM; do not include the unit.

> print(dat)
                                   compound  value.reported
1  COc1ccc2c(c1)CCCN2CCCCCCCCCCN(CCC(C)C)CCC(C)C            26.1

[Q] // returns reported TGI for input C=CCN1CCC23c4c5ccc(O)c4OC2C(=NN=C2CCC4(O)C6Cc7ccc(O)c8c7C4(CCN6CC=C)C2O8)CCC3(O)C1C5 (configuration not stated)
[A] 44

[Q] # input compound: C=CN1C(=O)[C@H](Oc2ccccc2)[C@@H]1c1ccccc1 ; wanted: its TGI
[A] 92.2

[Q] // lookup TGI for COC(=O)NC(C(F)(F)F)(C(F)(F)F)P1(=O)OCCCO1
[A] 58.6

[Q] May I ask what TGI has been recorded for Cn1cc(-c2csc(-c3c[nH]c4ccc(Br)cc34)n2)c2cnccc21 ?
[A] 13.9

* * *

tested on: UO-31 renal; assay: NCI tumour cell line growth inhibition, 48 h
ENDPOINT_LABEL: TGI (µM)
Your answer should be a plain number; it is taken to be in µM.

// solved cases for TGI follow
> print(dat)
                                   compound  output.unit  value.reported
1  CC(C)=CCC/C(C)=C/CC/C(C)=C/CC(CO)N(C)CC/C=C(\C)CCC=C(C)C (configuration not stated)           µM            17.9
2                        NCCc1cc(O)c(O)cc1O           µM            51.2
3    CCN(CC)CCSc1c2ccccc2nc2c(OC)ccc(OC)c12           µM            33.9
4  COc1cc(C2CC(c3cccc(Nc4ccncc4)c3)=NN2c2ccc(Cl)cc2)cc(OC)c1OC (configuration not stated)           µM            2.37

Now look at this one.
[Q] Give the reported TGI for N=C1C(=N)c2ccccc2-c2ccccc21.N=C1C(=N)c2ccccc2-c2ccccc21.N=C1C(=N)c2ccccc2-c2ccccc21.[Cl-].[Ru+2] (system: UO-31 renal).
[A] 4.71

Attribution: PubChem BioAssay (NCI)
